Items are presented alongside their recorded kinase still bound, per cent of control.
system_tested: NEK5 (human)
procedure_details: KINOMEscan competition binding
condition_notes: compound 10.0 µM
Could you give me the number in %? Just the number is fine.

For orientation, consider the following solved cases.
>>> print(df.to_string())
                              sample_smiles  system_tested  reported_measurement
0  CN(C)C/C=C/C(=O)Nc1ccc(C(=O)Nc2cccc(Nc3nccc(-c4cccnc4)n3)c2)cc1   NEK5 (human)                   2.2
1  COc1cc2ncnc(-n3nc(-c4ccccn4)nc3N)c2cc1OC   NEK5 (human)                    26
2  CNC(=O)c1ccc(Nc2cc(Nc3ccccc3S(=O)(=O)C(C)C)c3cc[nH]c3n2)nc1   NEK5 (human)                   100
3  Cc1n[nH]c2ccc(-c3cncc(OC[C@@H](N)Cc4c[nH]c5ccccc45)c3)cc12   NEK5 (human)                   100
4  COc1cc(C(=O)N2CCC(N3CCN(C)CC3)CC2)ccc1Nc1ncc2c(n1)N(C)c1ccccc1C(=O)N2C   NEK5 (human)                   100
5  O=C1NC(=O)/C(=C/c2ccc3nccc(-c4ccncc4)c3c2)S1   NEK5 (human)                   100
6  CS(=O)(=O)N1CCN(Cc2cc3nc(-c4cccc5[nH]ncc45)nc(N4CCOCC4)c3s2)CC1   NEK5 (human)                   100
7  COc1cc(N2CCN(C)CC2)ccc1Nc1ncc2c(n1)N(C)c1ccccc1C(=O)N2C   NEK5 (human)                   100
8  C=CC(=O)Nc1ccc(CN(C(=O)Nc2c(Cl)c(OC)cc(OC)c2Cl)c2cc(Nc3ccc(N4CCN(C)CC4)cc3)ncn2)cc1   NEK5 (human)                   100
9  COCC(=O)NC/C=C/c1ccc2ncnc(Nc3ccc(Oc4ccc(C)nc4)c(C)c3)c2c1   NEK5 (human)                   100

Ask: Lookup: kinase still bound, per cent of control / NEK5 (human) / `CCN(CC)CCCCNc1ncc2cc(-c3cc(OC)cc(OC)c3)c(NC(=O)NC(C)(C)C)nc2n1`
Reply: 100

Ask: Lookup: kinase still bound, per cent of control / NEK5 (human) / `COc1cc2ncn(-c3cc(OCc4ccccc4C(F)(F)F)c(C(N)=O)s3)c2cc1OC`
Reply: 36

Ask: Lookup: kinase still bound, per cent of control / NEK5 (human) / `O=c1cc(N2CCOCC2)oc2c(-c3cccc4c3sc3ccccc34)cccc12`
Reply: 100

* * *

system_tested: CDK11B (human)
procedure_details: KINOMEscan competition binding
condition_notes: compound 10.0 µM
readout: kinase still bound, per cent of control (%)
Could you give me the number in %? Just the number is fine.

For orientation, consider the following solved cases.
>>> print(df.to_string())
                              sample_smiles   system_tested  reported_measurement
0  COc1cc(C(=O)N2CCC(N3CCN(C)CC3)CC2)ccc1Nc1ncc2c(n1)N(C)c1ccccc1C(=O)N2C  CDK11B (human)                    84
1  COc1cc(N2CCN(C)CC2)ccc1Nc1ncc2c(n1)N(C)c1ccccc1C(=O)N2C  CDK11B (human)                   100
2  COc1ccc(N(C(=O)Oc2c(C)cccc2C)c2ccnc(Nc3ccc(N4CCN(C)CC4)cc3)n2)c(OC)c1  CDK11B (human)                    58
3  N#CCNC(=O)c1ccc(-c2ccnc(Nc3ccc(N4CCOCC4)cc3)n2)cc1  CDK11B (human)                    66
4  CNC(=O)c1ccc(Nc2cc(Nc3ccccc3S(=O)(=O)C(C)C)c3cc[nH]c3n2)nc1  CDK11B (human)                   100
5  COc1cc2ncnc(-n3nc(-c4ccccn4)nc3N)c2cc1OC  CDK11B (human)                    93
6  O=C1NC(=O)/C(=C/c2ccc3nccc(-c4ccncc4)c3c2)S1  CDK11B (human)                    95
7  NC(=O)Nc1cc(-c2cccc(F)c2)sc1C(=O)N[C@@H]1CCCNC1  CDK11B (human)                   100

Now consider the entry below.
Ask: // kinase still bound, per cent of control lookup, key: `C=CC(=O)Nc1cc(-n2c(=O)ccc3cnc4ccc(-c5cn[nH]c5)cc4c32)ccc1C`
Reply: 100

* * *

system_tested: MAK (human)
procedure_details: KINOMEscan competition binding
condition_notes: compound 10.0 µM
Items are presented alongside their recorded kinase still bound, per cent of control.
Could you give me the number in %? Just the number is fine.

>>> df
                              sample_smiles                                  readout  reported_measurement
0  O=c1cc(N2CCOCC2)oc2c(-c3cccc4c3sc3ccccc34)cccc12  kinase still bound, per cent of control                    43
1  COCC(=O)NC/C=C/c1ccc2ncnc(Nc3ccc(Oc4ccc(C)nc4)c(C)c3)c2c1  kinase still bound, per cent of control                    90
2  N#CCNC(=O)c1ccc(-c2ccnc(Nc3ccc(N4CCOCC4)cc3)n2)cc1  kinase still bound, per cent of control                   100

Ask: Lookup: kinase still bound, per cent of control / MAK (human) / `CN(C)C/C=C/C(=O)Nc1ccc(C(=O)Nc2cccc(Nc3nccc(-c4cccnc4)n3)c2)cc1`
Reply: 100

Ask: Lookup: kinase still bound, per cent of control / MAK (human) / `CCN(CC)CCCCNc1ncc2c(n1)N(C)C(=O)N(c1c(Cl)c(OC)cc(OC)c1Cl)C2`
Reply: 100

* * *

Items are presented alongside their recorded kinase still bound, per cent of control.
system_tested: SLK (human) (UniProt Q9H2G2)
Sequence (Q9H2G2 whole entry, looked up): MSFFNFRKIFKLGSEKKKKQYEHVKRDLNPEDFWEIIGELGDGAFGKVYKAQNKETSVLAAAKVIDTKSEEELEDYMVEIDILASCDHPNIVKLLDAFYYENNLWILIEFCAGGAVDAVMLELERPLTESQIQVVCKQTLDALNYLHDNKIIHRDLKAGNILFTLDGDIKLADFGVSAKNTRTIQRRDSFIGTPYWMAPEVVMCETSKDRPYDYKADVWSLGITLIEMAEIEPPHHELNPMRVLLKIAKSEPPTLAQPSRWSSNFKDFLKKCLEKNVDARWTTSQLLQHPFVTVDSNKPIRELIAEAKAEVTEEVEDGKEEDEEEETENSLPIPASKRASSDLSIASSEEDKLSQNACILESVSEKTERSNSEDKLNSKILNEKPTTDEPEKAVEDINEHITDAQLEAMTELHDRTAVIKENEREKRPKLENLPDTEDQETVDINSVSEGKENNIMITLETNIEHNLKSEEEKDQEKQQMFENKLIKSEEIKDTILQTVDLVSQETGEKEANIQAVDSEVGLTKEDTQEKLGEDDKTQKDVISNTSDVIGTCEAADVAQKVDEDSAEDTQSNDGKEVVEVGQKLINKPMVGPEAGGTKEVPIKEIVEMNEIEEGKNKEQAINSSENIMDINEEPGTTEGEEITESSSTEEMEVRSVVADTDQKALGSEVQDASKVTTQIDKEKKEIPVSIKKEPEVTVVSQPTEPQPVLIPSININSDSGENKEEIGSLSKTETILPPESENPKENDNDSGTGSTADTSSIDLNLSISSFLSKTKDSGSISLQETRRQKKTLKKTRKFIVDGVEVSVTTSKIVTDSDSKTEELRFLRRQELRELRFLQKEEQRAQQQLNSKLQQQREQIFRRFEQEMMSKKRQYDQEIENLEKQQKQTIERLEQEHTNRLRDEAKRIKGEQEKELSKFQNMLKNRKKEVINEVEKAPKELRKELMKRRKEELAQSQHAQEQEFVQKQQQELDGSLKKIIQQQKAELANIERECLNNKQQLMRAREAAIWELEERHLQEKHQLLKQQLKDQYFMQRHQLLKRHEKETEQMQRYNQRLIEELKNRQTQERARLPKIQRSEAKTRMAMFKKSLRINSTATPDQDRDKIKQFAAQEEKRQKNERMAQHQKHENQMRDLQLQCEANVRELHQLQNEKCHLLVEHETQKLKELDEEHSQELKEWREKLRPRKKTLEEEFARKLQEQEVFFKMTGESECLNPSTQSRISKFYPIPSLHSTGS
procedure_details: KINOMEscan competition binding
condition_notes: compound 10.0 µM
Could you give me the number in %? Just the number is fine.

For orientation, consider the following solved cases.
>>> df
                              sample_smiles  units  reported_measurement
0  COc1ccc(N(C(=O)Oc2c(C)cccc2C)c2ccnc(Nc3ccc(N4CCN(C)CC4)cc3)n2)c(OC)c1      %                   0.1
1  C[C@@H](Oc1cc(-c2cnn(C3CCNCC3)c2)cnc1N)c1c(Cl)ccc(F)c1Cl      %                   0.1
2  COc1cc(C(=O)N2CCC(N3CCN(C)CC3)CC2)ccc1Nc1ncc2c(n1)N(C)c1ccccc1C(=O)N2C      %                   100

Now consider the entry below.
Ask: // kinase still bound, per cent of control lookup, key: `COc1cc(N2CCN(C)CC2)ccc1Nc1ncc2c(n1)N(C)c1ccccc1C(=O)N2C`
Reply: 100

* * *

system_tested: CASK (human) (UniProt O14936)
Sequence (O14936 whole entry, looked up): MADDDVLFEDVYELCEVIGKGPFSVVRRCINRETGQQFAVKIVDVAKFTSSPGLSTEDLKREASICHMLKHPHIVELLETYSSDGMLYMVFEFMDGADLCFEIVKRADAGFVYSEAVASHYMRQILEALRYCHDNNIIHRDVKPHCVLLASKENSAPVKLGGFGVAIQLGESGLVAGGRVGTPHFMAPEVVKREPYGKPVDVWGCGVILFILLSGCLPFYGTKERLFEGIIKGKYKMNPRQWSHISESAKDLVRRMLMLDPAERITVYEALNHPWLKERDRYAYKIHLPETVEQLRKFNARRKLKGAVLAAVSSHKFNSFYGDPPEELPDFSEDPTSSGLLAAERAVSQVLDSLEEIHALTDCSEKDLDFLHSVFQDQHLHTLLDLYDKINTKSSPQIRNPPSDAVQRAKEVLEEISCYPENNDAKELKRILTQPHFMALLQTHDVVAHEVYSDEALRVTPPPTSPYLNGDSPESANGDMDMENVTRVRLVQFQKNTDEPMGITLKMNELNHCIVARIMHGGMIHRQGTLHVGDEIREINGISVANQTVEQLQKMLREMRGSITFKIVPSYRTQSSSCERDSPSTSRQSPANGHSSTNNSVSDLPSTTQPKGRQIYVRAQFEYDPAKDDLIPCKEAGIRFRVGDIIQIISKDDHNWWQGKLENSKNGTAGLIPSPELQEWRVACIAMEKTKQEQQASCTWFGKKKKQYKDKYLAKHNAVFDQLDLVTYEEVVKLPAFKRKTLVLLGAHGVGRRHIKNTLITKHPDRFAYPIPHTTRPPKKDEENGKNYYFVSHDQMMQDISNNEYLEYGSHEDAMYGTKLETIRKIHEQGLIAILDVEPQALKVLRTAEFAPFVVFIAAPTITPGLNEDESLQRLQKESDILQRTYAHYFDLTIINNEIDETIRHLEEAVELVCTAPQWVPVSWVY
procedure_details: KINOMEscan competition binding
condition_notes: compound 10.0 µM
Items are presented alongside their recorded kinase still bound, per cent of control.

>>> print(df.to_string())
                              sample_smiles                  system_tested  reported_measurement
0  COc1cc2ncn(-c3cc(OCc4ccccc4C(F)(F)F)c(C(N)=O)s3)c2cc1OC  CASK (human) (UniProt O14936)                   93%
1  COc1cc(C(=O)N2CCC(N3CCN(C)CC3)CC2)ccc1Nc1ncc2c(n1)N(C)c1ccccc1C(=O)N2C  CASK (human) (UniProt O14936)                   85%

Ask: // kinase still bound, per cent of control lookup, key: `CNC(=O)c1cc(Oc2ccc(NC(=O)Nc3ccc(Cl)c(C(F)(F)F)c3)cc2)ccn1`
Reply: 90%

Ask: // kinase still bound, per cent of control lookup, key: `O=c1cc(N2CCOCC2)oc2c(-c3cccc4c3sc3ccccc34)cccc12`
Reply: 100%

Ask: // kinase still bound, per cent of control lookup, key: `COc1cc2ncnc(-n3nc(-c4ccccn4)nc3N)c2cc1OC`
Reply: 26%

Ask: // kinase still bound, per cent of control lookup, key: `COc1ccc(N(C(=O)Oc2c(C)cccc2C)c2ccnc(Nc3ccc(N4CCN(C)CC4)cc3)n2)c(OC)c1`
Reply: 90%

Ask: // kinase still bound, per cent of control lookup, key: `COCC(=O)NC/C=C/c1ccc2ncnc(Nc3ccc(Oc4ccc(C)nc4)c(C)c3)c2c1`
Reply: 100%

Ask: // kinase still bound, per cent of control lookup, key: `CN(C)C/C=C/C(=O)Nc1ccc(C(=O)Nc2cccc(Nc3nccc(-c4cccnc4)n3)c2)cc1`
Reply: 98%

Ask: // kinase still bound, per cent of control lookup, key: `O=C1NC(=O)/C(=C/c2ccc3nccc(-c4ccncc4)c3c2)S1`
Reply: 59%

Ask: // kinase still bound, per cent of control lookup, key: `N#CCNC(=O)c1ccc(-c2ccnc(Nc3ccc(N4CCOCC4)cc3)n2)cc1`
Reply: 100%

Ask: // kinase still bound, per cent of control lookup, key: `C=CC(=O)Nc1cc(-n2c(=O)ccc3cnc4ccc(-c5cn[nH]c5)cc4c32)ccc1C`
Reply: 58%

Ask: // kinase still bound, per cent of control lookup, key: `NC(=O)Nc1cc(-c2cccc(F)c2)sc1C(=O)N[C@@H]1CCCNC1`
Reply: 92%

Ask: // kinase still bound, per cent of control lookup, key: `O=C(Nc1cccc(Nc2ncc(Br)c(NCCc3cnc[nH]3)n2)c1)N1CCCC1`
Reply: 67%

Ask: // kinase still bound, per cent of control lookup, key: `CCN1CCN(C(=O)Cc2ccc(Nc3ncc(F)c(Nc4ccc(C(=O)Nc5ccccc5Cl)cc4)n3)cc2)CC1`
Reply: 82%
